So I've got a bunch of compounds here, and I need their IC50 values.
# System: cellules L 1210 (Leucémie murine)
# procedure details: In vitro cytotoxicity, Microculture Tetrazolium Assay (cell growth inhibition)
# Type: cell-based
# condition description: Mus musculus, L1210, L 1210 cells in RPMI 1640 with 10 % fetal calf serum, read-out: IC₅₀, concentration inhibant à 50 % la croissance cellulaire
# Description: Les cellules L 1210 (Leucémie murine) sont cultivées dans du RPMI 1640 complémenté avec 10 % de sérum de veau foetal, 2 mM de L-glutamine, 100 unités/ml de pénicilline, 100 µg/ml de streptomycine et 10 mM d'Hepes (pH : 7,4). L'inhibition de la croissance cellulaire est mesurée selon le "Microculture Tetrazolium Assay" décrit par M. ALLEY et coll. (Cancer Res., 48, 589-601, 1988). Les résultats de ce test sont exprimés en IC₅₀, concentration inhibant à 50 % la croissance cellulaire. […]
Your reply should be a number followed by the unit it is expressed in.

Solved entries (count: 2):
1. O=NN(CCCl)C(=O)NCCCl [BCNU, reference compound]
6.4 µM
2. O=C1C#Cc2ccccc2C#CCCC1 [exemple 7, 7-Oxo-benzo[c]cyclodéca-1,5-diyne]
0.5 µM

Here's the next entry for you.
Problem: Any idea what IC50 was measured for CC(=O)OC1C#C/C=C\C#CCCC1 (stereo not drawn) ?
Solution: 5.6 µM

Every entry's value here was drawn from patent EP0518753B1.
